Test system: A549
Test protocol: In vitro percent inhibition of A549, lung carcinoma.
Format: functional, Homo sapiens

Chem smiles: CSc1ccc2c(cc1=O)[C@@H](NC(=O)c1ccc([N+](=O)[O-])cc1)CCc1cc(O)c(O)c(O)c1-2
Measured target: A549
Inhibition (%): 36
//
Chem smiles: CSc1ccc2c(cc1=O)[C@@H](NC(=O)c1cc(O)c(O)c(O)c1)CCc1cc(O)c(O)c(O)c1-2
Measured target: A549
Inhibition (%): 30
//
Chem smiles: CCC(=O)Oc1cc2c(c(OC(=O)CC)c1OC(=O)CC)-c1ccc(SC)c(=O)cc1[C@@H](NC(=O)c1ccc([N+](=O)[O-])cc1)CC2
Measured target: A549
Inhibition (%): 29
//
Chem smiles: Br.CSc1ccc2c(cc1=O)[C@@H](N)CCc1cc(O)c(O)c(O)c1-2
Measured target: A549
Inhibition (%): 0

* * *

The compounds listed here are annotated with their inhibition.
Measured target: DNA topoisomerase II (Homo sapiens, UniProt P11388+Q02880)
Test protocol: In vitro inhibitory activity at 100 uM against topoisomerase II measured as ATP-dependent unknotting of P4 DNA compared to enzyme and DNA control.
Type: protein assay

Compound: CSc1ccc2c(cc1=O)[C@@H](NC(=O)c1cccc([N+](=O)[O-])c1)CCc1cc(O)c(O)c(O)c1-2
inhibition: 100%
--
Compound: CSc1ccc2c(cc1=O)[C@@H](NC(=O)c1ccc(N)cc1)CCc1cc(O)c(O)c(O)c1-2
inhibition: 100%
--
Compound: CSc1ccc2c(cc1=O)[C@@H](NC(=O)c1ccc([N+](=O)[O-])cc1)CCc1cc(OC(C)=O)c(OC(C)=O)c(OC(C)=O)c1-2
inhibition: 0%
--
Compound: CSc1ccc2c(cc1=O)[C@@H](NC(=O)c1ccc(CBr)cc1)CCc1cc(O)c(O)c(O)c1-2
inhibition: 100%
--
Compound: CSc1ccc2c(cc1=O)[C@@H](NC(=O)c1cc([N+](=O)[O-])cc([N+](=O)[O-])c1)CCc1cc(O)c(O)c(O)c1-2
inhibition: 100%
--
Compound: CSc1ccc2c(cc1=O)[C@@H](NC(=O)C13CCC(C)(C(=O)O1)C3(C)C)CCc1cc(O)c(O)c(O)c1-2 (some centres not stated)
inhibition: 0%
--
Compound: CSc1ccc2c(cc1=O)[C@@H](NC(=O)c1cc(O)c(O)c(O)c1)CCc1cc(O)c(O)c(O)c1-2
inhibition: 100%
--
Compound: CSc1ccc2c(cc1=O)[C@@H](NC(=O)c1ccc(F)cc1)CCc1cc(O)c(O)c(O)c1-2
inhibition: 100%
--
Compound: Br.CSc1ccc2c(cc1=O)[C@@H](N)CCc1cc(O)c(O)c(O)c1-2
inhibition: 100%
--
Compound: CSc1ccc2c(cc1=O)[C@@H](NC(=O)c1ccccc1[N+](=O)[O-])CCc1cc(O)c(O)c(O)c1-2
inhibition: 100%
--
Compound: CSc1ccc2c(cc1=O)[C@@H](NC(=O)c1ccc(Cl)cc1)CCc1cc(O)c(O)c(O)c1-2
inhibition: 100%
--
Compound: CCC(=O)Oc1cc2c(c(OC(=O)CC)c1OC(=O)CC)-c1ccc(SC)c(=O)cc1[C@@H](NC(=O)c1ccc([N+](=O)[O-])cc1)CC2
inhibition: 0%
--
Compound: CSc1ccc2c(cc1=O)[C@@H](NC(=O)c1ccc([N+](=O)[O-])cc1)CCc1cc(OC(=O)C(C)C)c(OC(=O)C(C)C)c(OC(=O)C(C)C)c1-2
inhibition: 0%
--
Compound: CCCCCC(=O)N[C@H]1CCc2cc(O)c(O)c(O)c2-c2ccc(SC)c(=O)cc21
inhibition: 100%
--
Compound: CSc1ccc2c(cc1=O)[C@@H](NC(=O)c1ccc([N+](=O)[O-])cc1)CCc1cc(O)c(O)c(O)c1-2
inhibition: 100%
--
Compound: CSc1ccc2c(cc1=O)[C@@H](NC(=O)c1ccc(NC(=O)C34CCC(C)(C(=O)O3)C4(C)C)cc1)CCc1cc(O)c(O)c(O)c1-2 (some centres not stated)
inhibition: 0%
--
Compound: CSc1ccc2c(cc1=O)[C@@H](NC(=O)C13CC4CC(CC(C4)C1)C3)CCc1cc(O)c(O)c(O)c1-2
inhibition: 0%
